B1: BRF1 (parent)
chain: CTACGSVLEDNIIVSEVQFVESSG

variants of: B1; test: protein stability index of a GFP-peptide fusion (GPS, HEK-293T) (PSI 1-6); higher = more stable; settings: c terminus: a fixed tail appended;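 also: lentivirally expressed fusions sorted by FACS into six bins by GFP to DsRed ratio, PSI derived from sequencing read proportions per bin multiplied by bin number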
The entries below come with measured protein stability index values attached.
TEST_READOUT: protein stability index

>>> readout_value("V7R")
3.22
>>> readout_value("S23M")
2.81
>>> readout_value("S22I")
1.52
>>> readout_value("F19C")
2.43
>>> readout_value("E9I")
2.08
>>> readout_value("A3Y")
2.5
>>> readout_value("V17E")
3.88
>>> readout_value("E21C")
3.27
>>> readout_value("E9H")
2.32
>>> readout_value("G5L")
1.75
>>> readout_value("T2W")
2.54
>>> readout_value("V17I")
1.92
>>> readout_value("A3P")
3.47
>>> readout_value("L8M")
3.79
>>> readout_value("V14N")
4.23
>>> readout_value("F19K")
4.19
>>> readout_value("E21R")
3.53
>>> readout_value("I13N")
3.79
>>> readout_value("E9Q")
2.99
>>> readout_value("E21V")
2.82
>>> readout_value("S6R")
2.51
>>> readout_value("S15W")
2.75

Data origin, for the record: the supplement of paper PMC10567573
